Assay: Mouse PK Assay
Format: in vivo
Settings: plasma; male BALB/c mouse, single oral dose 5 mg/kg; read-out: PO T1/2 (converted)
measured_attribute: half-life (h)
Give just the number in h; leave the unit off.

Form: compound = `N#Cc1ccc(N2CC3(CCC4(CC4)CC3)c3cc(NS(=O)(=O)CCO)ccc3C2=O)nc1N1CCC(F)(F)CC1` ; half-life = 3.7

----------
Quick list: fraction unbound at 6 hr, 1 μM per entry.
Test: Human Plasma Protein Binding Assay (dialysis)
Assay type: in vitro ADME
Conditions: 1 μM compound, dialysis 6 hr at 37 °C
Description: The plasma protein binding of compounds in human plasma was determined using a dialysis method. […] The % Unbound, % Bound, and % Recovery of the compounds were calculated from the peak area ratios of the analyte and internal standard in the plasma and buffer samples as shown in the following equations: […]
Give the figure by itself; no unit, no explanation.

For orientation, consider the following solved cases.
compound	fraction unbound at 6 hr, 1 μM
CCS(=O)(=O)Nc1ccc2c(c1)C1(CCC3(CC3)CC1)CN(c1ccc(C#N)c(S(=O)(=O)NC(C)(C)C)c1)C2=O	0.0122
O=C1c2ccc(NS(=O)(=O)CCO)cc2C2(CCC3(CC3)CC2)CN1c1ccnc(NC2CCC(F)(F)C2)n1 (single isomer, unassigned)	0.0014
COc1ccc(N2CC3(CCC4(CC4)CC3)c3cc(NS(=O)(=O)CCO)ccc3C2=O)nc1N1CCC(F)(F)CC1	0.001

Form: compound = `O=C1c2ccc(NS(=O)(=O)CCO)cc2C2(CCC3(CC3)CC2)CN1c1ccnc(NC2CC(F)(F)C2)n1` ; fraction unbound at 6 hr, 1 μM = 0.002

----------
Quick list: pIC50 per entry.
System: OVCAR3 Cells
Assay: OVCAR3 Cell Viability Assay (CellTiter-Glo)
Format: cell-based
Conditions: Homo sapiens, OVCAR-3, 144 h, 6 days incubation, read-out: OVCAR3 CTG IC50
pIC50: −log10 of the molar value.

compound	pIC50
O=C1c2ccc(NS(=O)(=O)CCO)cc2C2(CCC3(CC3)CC2)CN1c1ccc(-c2cc[nH]n2)c(N2CCC(F)(F)CC2)n1	> 6.70
N#Cc1ncc(N2CC3(CCC4(CC4)CC3)c3cc(NS(=O)(=O)CCO)ccc3C2=O)nc1N1CCC(F)(F)CC1	> 6.70
Cn1ccc(-c2ccc(N3CC4(CCC5(CC5)CC4)c4cc(NS(=O)(=O)CCO)ccc4C3=O)nc2NC2CC(F)(F)C2)n1	5.70 to 6.70
O=C1c2ccc(NS(=O)(=O)CCO)cc2C2(CCC3(CC3)CC2)CN1c1ccc(C2CC2)c(N2CCC(F)(F)CC2)n1	> 6.70
O=C1c2ccc(NS(=O)(=O)CCO)cc2C2(CCC3(CC3)CC2)CN1c1cncc(NC2CC(F)(F)C2)n1	5.70 to 6.70
CC(c1nc(N2CC3(CCC4(CC4)CC3)c3cc(NS(=O)(=O)CCO)ccc3C2=O)ccc1C#N)N1CC(F)(F)C1 (stereo not shown)	< 5.70

The measured pIC50 that `Cn1cnc(-c2ccc(N3CC4(CCC5(CC5)CC4)c4cc(NS(=O)(=O)CCO)ccc4C3=O)nc2N2CCC(F)(F)CC2)n1` showed for OVCAR3 Cells is > 6.70

The measured pIC50 that `O=C1c2ccc(NS(=O)(=O)CCO)cc2C2(CCC3(CC3)CC2)CN1c1ccc(F)c(NC2CC(F)(F)C2)n1` showed for OVCAR3 Cells is > 6.70

The measured pIC50 that `O=C1c2ccc(NS(=O)(=O)CCO)nc2C2(CCC3(CC3)CC2)CN1c1ccnc(N2CCC(F)(F)CC2)n1` showed for OVCAR3 Cells is < 5.70

The measured pIC50 that `O=C1c2ncc(NS(=O)(=O)CCO)cc2C2(CCC3(CC3)CC2)CN1c1ccnc(N2CCC(F)(F)CC2)n1` showed for OVCAR3 Cells is 5.70 to 6.70

The measured pIC50 that `NC(=O)c1ncc(N2CC3(CCC4(CC4)CC3)c3cc(NS(=O)(=O)CCO)ccc3C2=O)nc1N1CCC(F)(F)CC1` showed for OVCAR3 Cells is > 6.70

The measured pIC50 that `Cc1cc(-c2ccc(N3CC4(CCC5(CC5)CC4)c4cc(NS(=O)(=O)CCO)ccc4C3=O)nc2N2CCC(F)(F)CC2)ccn1` showed for OVCAR3 Cells is > 6.70

The measured pIC50 that `CCS(=O)(=O)Nc1ccc2c(c1)C1(CCC3(CC3)CC1)CN(c1ccc(C#N)c(S(=O)(=O)N3CC(F)(F)C3)c1)C2=O` showed for OVCAR3 Cells is > 6.70

----------
Target: P450 2C9 (Homo sapiens, UniProt P11712)
Sequence (P11712 whole entry): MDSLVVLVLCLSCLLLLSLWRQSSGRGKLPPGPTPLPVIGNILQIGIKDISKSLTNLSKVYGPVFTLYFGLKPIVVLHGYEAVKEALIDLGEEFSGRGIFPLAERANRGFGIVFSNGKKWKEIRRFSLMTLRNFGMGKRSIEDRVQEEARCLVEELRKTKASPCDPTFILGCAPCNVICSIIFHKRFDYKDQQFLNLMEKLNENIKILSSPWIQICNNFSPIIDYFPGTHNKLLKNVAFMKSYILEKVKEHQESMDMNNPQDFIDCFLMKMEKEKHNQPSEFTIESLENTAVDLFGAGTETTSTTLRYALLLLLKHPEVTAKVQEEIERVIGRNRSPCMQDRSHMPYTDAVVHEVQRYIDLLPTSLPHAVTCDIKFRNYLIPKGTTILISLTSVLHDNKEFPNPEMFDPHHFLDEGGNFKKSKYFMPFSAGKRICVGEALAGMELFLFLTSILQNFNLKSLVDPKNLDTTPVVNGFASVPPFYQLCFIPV
measured_attribute: IC50 (µM)
Give just the number in µM; leave the unit off.

The measured IC50 that N#Cc1ccc(N2CC3(CCC4(CCC4)CC3)c3cc(NS(=O)(=O)CCO)ccc3C2=O)nc1N1CCC(F)(F)CC1 [Compound 116] showed for P450 2C9 (Homo sapiens, UniProt P11712) is 6.7

----------
Tested on: OVCAR3 Cells
Assay: OVCAR3 Cell Viability Assay (CellTiter-Glo)
Assay type: cell-based
Details: Homo sapiens, OVCAR-3, 144 h, 6 days incubation, read-out: OVCAR3 CTG IC50
measured_attribute: IC50

For orientation, consider the following solved cases.
molecule	study_target	measured_attribute	value_reported
Cn1ccc(-c2ccc(N3CC4(CCC5(CC5)CC4)c4cc(NS(=O)(=O)CCO)ccc4C3=O)nc2N2CCC(F)(F)CC2)n1	OVCAR3 Cells	IC50	< 200 nM
CN(C)CCS(=O)(=O)Nc1ccc2c(c1)C1(CCC3(CC3)CC1)CN(c1ccc(C#N)c(N3CCC(F)(F)CC3)n1)C2=O	OVCAR3 Cells	IC50	200 to 2000 nM
O=C1c2ccc(NS(=O)(=O)CCO)cc2C2(CCC3(CC3)CC2)CN1c1ccnc(NCCC(F)(F)F)n1	OVCAR3 Cells	IC50	< 200 nM
O=C1c2ccc(NS(=O)(=O)CCO)cc2C2(CCC3(CC3)CC2)CN1c1csc(N2CCC(F)(F)CC2)n1	OVCAR3 Cells	IC50	> 2000 nM
Cn1cc(-c2ccc(N3CC4(CCC5(CC5)CC4)c4cc(NS(=O)(=O)CCO)ccc4C3=O)nc2NC2CC(F)(F)C2)cn1	OVCAR3 Cells	IC50	< 200 nM
O=C1c2cnc(NS(=O)(=O)CCO)cc2C2(CCC3(CC3)CC2)CN1c1ccc(F)c(N2CCC(F)(F)CC2)n1	OVCAR3 Cells	IC50	< 200 nM
CC1CN(c2nc(N3CC4(CCC5(CC5)CC4)c4cc(NS(=O)(=O)CCO)ccc4C3=O)ccc2C#N)CCO1 (centres unmarked)	OVCAR3 Cells	IC50	< 200 nM
O=C1c2ccc(NS(=O)(=O)CCO)cc2C2(CCC3(CC3)CC2)CN1c1ccc(C(F)(F)F)c(N2CCC(F)(F)CC2)n1	OVCAR3 Cells	IC50	< 200 nM
O=C1c2ccc(NS(=O)(=O)CCO)cc2C2(CCC3(CC3)CC2)CN1c1ccnc(N2CC(F)(F)C2)n1	OVCAR3 Cells	IC50	200 to 2000 nM
O=C1c2ccc(NS(=O)(=O)CCO)cc2C2(CCC3(CC3)CC2)CN1c1ccc(=O)n(CC2CC(F)(F)C2)n1	OVCAR3 Cells	IC50	200 to 2000 nM

Form: molecule = `N#Cc1ccc(N2CC3(CCC(F)(F)CC3)c3cc(NS(=O)(=O)CCO)c(F)cc3C2=O)nc1N1CCC(F)(F)CC1` ; IC50 = < 200 nM

Form: molecule = `O=C1c2ccc(NS(=O)(=O)CCO)cc2C2(CCC3(CC3)CC2)CN1c1ccnc(N2CCC(F)(F)C2)n1` ; IC50 = 200 to 2000 nM

Form: molecule = `CCNC(=O)c1ccc(N2CC3(CCC4(CC4)CC3)c3cc(NS(=O)(=O)CCO)ccc3C2=O)nc1NC1CC(F)(F)C1` ; IC50 = < 200 nM

Form: molecule = `O=C1c2ccc(NS(=O)(=O)CCO)cc2C2(CCC3(CC3)CC2)CN1c1ccnc(NC2CCCC2)n1` ; IC50 = < 200 nM

----------
System: OVCAR3 Cells
Test: OVCAR3 Cell Viability Assay (CellTiter-Glo)
Assay type: cell-based
Conditions: Homo sapiens, OVCAR-3, 144 h, 6 days incubation, read-out: OVCAR3 CTG IC50
measured_attribute: IC50

smiles_input	study_target	value_reported
N#Cc1ccc(N2CC3(CCC4(CC4)CC3)c3cc(NS(=O)(=O)CCO)ccc3C2=O)nc1NC1CC(F)(F)C1	OVCAR3 Cells	< 200 nM

Form: compound = `Cc1ccc(-c2ccc(N3CC4(CCC5(CC5)CC4)c4cc(NS(=O)(=O)CCO)ccc4C3=O)nc2N2CCC(F)(F)CC2)cn1` ; IC50 = < 200 nM

Form: compound = `O=C(Nc1ccc2ncn(CC(F)(F)F)c2c1)c1ccc(NS(=O)(=O)CCO)cc1N1CCC2(CC1)CC2` ; IC50 = < 200 nM
